molecular target: Histone deacetylase (Homo sapiens) (UniProt Q13547+O15379+Q9UBN7+Q92769+Q9UQL6+Q8WUI4+Q9BY41+Q96DB2+P56524+Q9UKV0+Q969S8); experiment: Inhibition of HDAC in human K562 cells nuclear extracts at 100 uM; assay type: cell-free
Measurement kind: inhibition (%)
Numbers only, in %.

What value of measured inhibition is listed for COc1ccc2cc(C(=O)/C=C/C=C/c3ccc(OC)c(OC)c3)c(=O)oc2c1 ? 50

Then there is this molecule:
What value of measured inhibition is listed for COc1ccc2cc(C(C)=O)c(=O)oc2c1 ? 20

---

biological target: UniProt:Q9UBN7
Sequence (Q9UBN7 whole entry): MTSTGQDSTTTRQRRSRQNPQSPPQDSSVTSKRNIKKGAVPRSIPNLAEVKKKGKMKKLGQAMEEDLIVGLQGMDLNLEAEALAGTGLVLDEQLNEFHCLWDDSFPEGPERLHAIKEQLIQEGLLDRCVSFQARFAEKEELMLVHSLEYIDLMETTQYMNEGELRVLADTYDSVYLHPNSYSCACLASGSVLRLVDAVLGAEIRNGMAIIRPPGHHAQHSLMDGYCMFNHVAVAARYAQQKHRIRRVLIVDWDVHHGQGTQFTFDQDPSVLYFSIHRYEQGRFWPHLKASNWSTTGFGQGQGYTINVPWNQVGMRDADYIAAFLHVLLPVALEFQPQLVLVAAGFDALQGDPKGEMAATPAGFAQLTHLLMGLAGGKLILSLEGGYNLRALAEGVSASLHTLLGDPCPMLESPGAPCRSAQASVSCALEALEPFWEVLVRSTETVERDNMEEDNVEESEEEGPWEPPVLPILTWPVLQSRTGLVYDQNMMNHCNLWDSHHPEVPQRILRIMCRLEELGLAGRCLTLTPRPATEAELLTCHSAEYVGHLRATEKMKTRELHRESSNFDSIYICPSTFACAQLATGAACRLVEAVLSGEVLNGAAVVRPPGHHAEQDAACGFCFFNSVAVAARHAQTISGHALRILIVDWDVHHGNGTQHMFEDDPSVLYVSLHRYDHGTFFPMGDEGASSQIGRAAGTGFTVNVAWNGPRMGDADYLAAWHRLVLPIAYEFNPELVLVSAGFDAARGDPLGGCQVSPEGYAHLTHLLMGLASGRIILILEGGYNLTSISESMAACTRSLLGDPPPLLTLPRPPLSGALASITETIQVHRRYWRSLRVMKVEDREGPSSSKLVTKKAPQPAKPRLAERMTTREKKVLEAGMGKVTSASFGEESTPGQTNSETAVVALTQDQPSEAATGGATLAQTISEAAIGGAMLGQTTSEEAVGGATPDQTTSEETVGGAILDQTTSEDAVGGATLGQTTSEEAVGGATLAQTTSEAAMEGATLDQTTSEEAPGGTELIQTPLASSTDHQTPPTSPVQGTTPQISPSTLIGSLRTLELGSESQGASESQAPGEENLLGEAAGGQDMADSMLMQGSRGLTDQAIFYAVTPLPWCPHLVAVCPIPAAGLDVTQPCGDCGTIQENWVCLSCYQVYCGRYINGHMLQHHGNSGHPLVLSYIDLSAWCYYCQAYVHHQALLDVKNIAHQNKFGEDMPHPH
Measurement kind: pIC50
One number for each entry, as −log10 of the molar value.

What value of measured pIC50 is listed for COc1ccc2cc(C(=O)/C=C/C=C/c3ccc(OC)c(OC)c3)c(=O)oc2c1 ? 4.49
